Documented MIC across a set of molecules
Tested on: Candida albicans
Assay: Minimum inhibitory concentration to inhibit 90 to 100% visible growth of Candida albicans
Assay type: functional
READOUT_NAME: MIC (µg/mL)

[[record]]
molecule = "CC(C)C1=CC2CC3(C=O)C4CC[C@@H](C)C4CC2(CCOC(=O)CCc2c[nH]c4ccccc24)C13C(=O)O (stereo partly specified)"
tgt = "Candida albicans"
readout_name = "MIC"
prefix_operator = ">"
reported_result = 128

[[record]]
molecule = "C=Cc1ccc(C(=O)OCCC23CC4C(CC[C@H]4C)C4(C=O)CC2C=C(C(C)C)C43C(=O)O)cc1 (stereo partly specified)"
tgt = "Candida albicans"
readout_name = "MIC"
prefix_operator = "="
reported_result = 4

[[record]]
molecule = "CC(C)C1=CC2CC3(C=O)C4CC[C@@H](C)C4CC2(CCOC(=O)Cc2csc4ccccc24)C13C(=O)O (stereo partly specified)"
tgt = "Candida albicans"
readout_name = "MIC"
prefix_operator = "="
reported_result = 8

[[record]]
molecule = "CCCCCCC(=O)C12C[C@@H]3[C@H](C)CC[C@H]3C3(C=O)CC1C=C(C(C)C)[C@@]23C(=O)O"
tgt = "Candida albicans"
readout_name = "MIC"
prefix_operator = "="
reported_result = 0.25

[[record]]
molecule = "CCCCC#CC(O)C12C[C@@H]3[C@H](C)CC[C@H]3C3(C=O)CC1C=C(C(C)C)[C@@]23C(=O)O (stereo partly specified)"
tgt = "Candida albicans"
readout_name = "MIC"
prefix_operator = "="
reported_result = 8

[[record]]
molecule = "CC(C)C1=CC2CC3(C=O)[C@@H]4CC[C@@H](C)[C@H]4CC2(C(O)C#CC(C)(C)C)[C@]13C(=O)O (stereo partly specified)"
tgt = "Candida albicans"
readout_name = "MIC"
prefix_operator = "="
reported_result = 128

[[record]]
molecule = "CC(C)C1=CC2CC3(C=O)[C@@H]4CC[C@@H](C)[C@H]4CC2(C(=O)CC2CCCCC2)[C@]13C(=O)O"
tgt = "Candida albicans"
readout_name = "MIC"
prefix_operator = "="
reported_result = 0.5

[[record]]
molecule = "CC(C)CCCCC(=O)C12C[C@@H]3[C@H](C)CC[C@H]3C3(C=O)CC1C=C(C(C)C)[C@@]23C(=O)O"
tgt = "Candida albicans"
readout_name = "MIC"
prefix_operator = "="
reported_result = 0.5

[[record]]
molecule = "CC(=O)OCC(=O)OCCC12CC3C(CC[C@H]3C)C3(C=O)CC1C=C(C(C)C)C32C(=O)O (stereo partly specified)"
tgt = "Candida albicans"
readout_name = "MIC"
prefix_operator = ">"
reported_result = 128

[[record]]
molecule = "CC(C)C1=CC2CC3(C=O)[C@@H]4CC[C@@H](C)[C@H]4CC2(C(=O)CCc2ccccc2)[C@]13C(=O)O"
tgt = "Candida albicans"
readout_name = "MIC"
prefix_operator = "="
reported_result = 16

[[record]]
molecule = "CC(C)C1=CC2CC3(C=O)C4CC[C@@H](C)C4CC2(CCOC(=O)c2ccco2)C13C(=O)O (stereo partly specified)"
tgt = "Candida albicans"
readout_name = "MIC"
prefix_operator = "="
reported_result = 8

[[record]]
molecule = "CC(C)C1=CC2CC3(C=O)C4CC[C@@H](C)C4CC2(CCOC(=O)c2ccccc2)C13C(=O)O (stereo partly specified)"
tgt = "Candida albicans"
readout_name = "MIC"
prefix_operator = "="
reported_result = 32

[[record]]
molecule = "CC(C)C1=CC2CC3(C=O)C4CC[C@@H](C)C4CC2(CCOC(=O)c2cncc(Br)c2)C13C(=O)O (stereo partly specified)"
tgt = "Candida albicans"
readout_name = "MIC"
prefix_operator = "="
reported_result = 4

[[record]]
molecule = "CC(C)C1=CC2CC3(C=O)C4CC[C@@H](C)C4CC2(CCOC(=O)CSc2ccccc2)C13C(=O)O (stereo partly specified)"
tgt = "Candida albicans"
readout_name = "MIC"
prefix_operator = "="
reported_result = 0.5

[[record]]
molecule = "CC(C)C1=CC2CC3(C=O)C4CC[C@@H](C)C4CC2(CCOC(=O)[C@@H]2CCC(=O)N2)C13C(=O)O (stereo partly specified)"
tgt = "Candida albicans"
readout_name = "MIC"
prefix_operator = ">"
reported_result = 128

[[record]]
molecule = "CC(C)CCC(=O)C12C[C@@H]3[C@H](C)CC[C@H]3C3(C=O)CC1C=C(C(C)C)[C@@]23C(=O)O"
tgt = "Candida albicans"
readout_name = "MIC"
prefix_operator = ">"
reported_result = 128

